Origin of values: ChEMBL document CHEMBL5647694

- target.system: Histone-lysine N-methyltransferase SETD1B (Homo sapiens, UniProt Q9UPS6)
- Sequence (Q9UPS6 whole entry): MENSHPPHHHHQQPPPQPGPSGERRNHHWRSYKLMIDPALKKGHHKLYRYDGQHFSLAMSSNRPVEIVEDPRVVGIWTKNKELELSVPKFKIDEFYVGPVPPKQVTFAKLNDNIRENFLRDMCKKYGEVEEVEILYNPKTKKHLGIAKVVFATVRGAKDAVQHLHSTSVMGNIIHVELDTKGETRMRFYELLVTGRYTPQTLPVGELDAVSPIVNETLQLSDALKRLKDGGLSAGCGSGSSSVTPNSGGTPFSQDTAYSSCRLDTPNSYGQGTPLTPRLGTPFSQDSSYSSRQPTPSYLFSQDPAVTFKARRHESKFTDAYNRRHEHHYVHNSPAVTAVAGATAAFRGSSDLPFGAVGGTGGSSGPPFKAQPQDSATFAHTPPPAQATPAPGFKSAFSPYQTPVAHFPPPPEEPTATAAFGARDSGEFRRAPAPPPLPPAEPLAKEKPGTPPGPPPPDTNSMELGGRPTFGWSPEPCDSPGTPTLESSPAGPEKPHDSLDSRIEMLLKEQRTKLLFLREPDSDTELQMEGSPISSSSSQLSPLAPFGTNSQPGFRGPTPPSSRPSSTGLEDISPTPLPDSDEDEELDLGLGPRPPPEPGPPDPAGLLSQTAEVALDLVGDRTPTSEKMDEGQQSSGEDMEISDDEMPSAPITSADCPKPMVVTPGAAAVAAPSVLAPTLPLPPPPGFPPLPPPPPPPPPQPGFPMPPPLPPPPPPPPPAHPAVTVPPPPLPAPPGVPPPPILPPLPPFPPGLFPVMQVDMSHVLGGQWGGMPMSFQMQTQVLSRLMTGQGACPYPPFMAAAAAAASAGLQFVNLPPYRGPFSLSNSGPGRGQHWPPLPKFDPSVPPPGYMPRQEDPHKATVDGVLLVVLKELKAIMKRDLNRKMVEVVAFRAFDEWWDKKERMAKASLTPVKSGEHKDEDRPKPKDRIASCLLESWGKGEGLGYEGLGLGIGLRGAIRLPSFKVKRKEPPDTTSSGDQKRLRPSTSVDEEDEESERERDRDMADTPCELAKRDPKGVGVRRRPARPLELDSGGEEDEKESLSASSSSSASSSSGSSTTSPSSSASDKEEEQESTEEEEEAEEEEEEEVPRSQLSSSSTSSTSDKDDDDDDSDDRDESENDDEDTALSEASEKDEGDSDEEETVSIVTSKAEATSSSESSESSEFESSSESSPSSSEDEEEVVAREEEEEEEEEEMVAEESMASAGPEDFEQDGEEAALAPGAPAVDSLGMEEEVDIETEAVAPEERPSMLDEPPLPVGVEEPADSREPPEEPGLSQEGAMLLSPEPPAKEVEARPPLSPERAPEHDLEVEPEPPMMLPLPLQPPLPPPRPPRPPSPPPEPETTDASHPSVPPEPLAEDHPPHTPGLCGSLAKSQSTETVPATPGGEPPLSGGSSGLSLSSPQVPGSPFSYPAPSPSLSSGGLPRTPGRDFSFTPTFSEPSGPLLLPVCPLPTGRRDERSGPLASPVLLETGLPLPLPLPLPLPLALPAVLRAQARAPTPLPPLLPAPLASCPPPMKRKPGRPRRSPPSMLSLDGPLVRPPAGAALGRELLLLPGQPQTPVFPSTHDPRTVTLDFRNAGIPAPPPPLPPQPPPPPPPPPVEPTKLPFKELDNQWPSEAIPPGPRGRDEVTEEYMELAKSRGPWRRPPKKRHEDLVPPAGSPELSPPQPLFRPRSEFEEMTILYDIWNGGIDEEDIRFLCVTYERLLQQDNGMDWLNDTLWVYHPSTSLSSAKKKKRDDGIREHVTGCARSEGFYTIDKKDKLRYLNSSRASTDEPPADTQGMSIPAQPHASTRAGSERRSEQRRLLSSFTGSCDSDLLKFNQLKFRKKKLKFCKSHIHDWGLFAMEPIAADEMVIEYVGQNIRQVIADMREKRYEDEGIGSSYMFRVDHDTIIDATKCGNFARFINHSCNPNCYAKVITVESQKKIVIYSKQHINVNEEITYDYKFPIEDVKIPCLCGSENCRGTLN
pIC50: −log10 of the molar value.
result.type: pIC50

{"sample.smiles": "Cc1cc(C)c(CNC(=O)c2cc(Cl)c3c(c2C)O[C@@](C)([C@H]2CC[C@H](N(C)C)CC2)O3)c(=O)[nH]1", "result.type": "pIC50", "measurement": 4.00}

---

- target.system: DNA (cytosine-5)-methyltransferase 3A (Homo sapiens, UniProt Q9Y6K1)
- Sequence (Q9Y6K1 whole entry, looked up): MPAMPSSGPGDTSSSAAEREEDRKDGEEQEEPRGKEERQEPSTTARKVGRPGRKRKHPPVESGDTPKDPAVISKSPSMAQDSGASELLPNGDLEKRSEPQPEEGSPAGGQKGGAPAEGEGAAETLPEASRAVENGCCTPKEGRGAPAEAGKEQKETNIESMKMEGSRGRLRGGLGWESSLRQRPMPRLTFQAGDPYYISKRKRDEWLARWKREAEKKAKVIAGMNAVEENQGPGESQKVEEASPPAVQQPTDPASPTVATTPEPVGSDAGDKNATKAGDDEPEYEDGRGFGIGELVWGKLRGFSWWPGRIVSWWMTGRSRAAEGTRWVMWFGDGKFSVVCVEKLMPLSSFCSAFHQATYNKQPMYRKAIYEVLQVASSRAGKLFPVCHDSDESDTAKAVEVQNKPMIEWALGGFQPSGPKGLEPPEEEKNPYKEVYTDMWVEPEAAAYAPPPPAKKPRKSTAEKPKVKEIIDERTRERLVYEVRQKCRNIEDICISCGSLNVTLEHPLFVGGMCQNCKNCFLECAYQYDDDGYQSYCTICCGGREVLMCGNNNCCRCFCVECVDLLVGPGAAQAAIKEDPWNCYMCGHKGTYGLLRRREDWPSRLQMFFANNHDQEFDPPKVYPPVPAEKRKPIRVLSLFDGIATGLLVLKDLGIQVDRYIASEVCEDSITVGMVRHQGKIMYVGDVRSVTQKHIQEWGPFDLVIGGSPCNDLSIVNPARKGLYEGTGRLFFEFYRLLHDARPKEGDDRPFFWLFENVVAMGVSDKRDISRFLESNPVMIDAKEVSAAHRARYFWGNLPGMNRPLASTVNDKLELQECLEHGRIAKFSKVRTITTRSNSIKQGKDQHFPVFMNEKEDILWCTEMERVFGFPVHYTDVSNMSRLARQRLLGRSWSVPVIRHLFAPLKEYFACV

{"sample.smiles": "Cc1cc(C)c(CNC(=O)c2cc(Cl)c3c(c2C)O[C@@](C)([C@H]2CC[C@H](N(C)C)CC2)O3)c(=O)[nH]1", "unit.descriptor": "µM", "IC50": 100}

---

- protocol.description: AUC (0 to 24 hrs) in BALB/c mouse at 6.3 mg/kg administered as single dose
- Type: ADME, organism-based
- experimental.conditions: in vivo, route po
result.type: AUC(0-t) (µM·h)

{"sample.smiles": "Cc1cc(C)c(CNC(=O)c2cc(Br)c3c(c2C)O[C@@](C)([C@H]2CC[C@H](N(C)C)CC2)O3)c(=O)[nH]1", "result.type": "AUC(0-t)", "measurement": 1.6}

---

- target.system: Histone-lysine N-methyltransferase NSD2 (Homo sapiens, UniProt O96028, E1099K)
- Sequence (O96028 whole entry E1099K): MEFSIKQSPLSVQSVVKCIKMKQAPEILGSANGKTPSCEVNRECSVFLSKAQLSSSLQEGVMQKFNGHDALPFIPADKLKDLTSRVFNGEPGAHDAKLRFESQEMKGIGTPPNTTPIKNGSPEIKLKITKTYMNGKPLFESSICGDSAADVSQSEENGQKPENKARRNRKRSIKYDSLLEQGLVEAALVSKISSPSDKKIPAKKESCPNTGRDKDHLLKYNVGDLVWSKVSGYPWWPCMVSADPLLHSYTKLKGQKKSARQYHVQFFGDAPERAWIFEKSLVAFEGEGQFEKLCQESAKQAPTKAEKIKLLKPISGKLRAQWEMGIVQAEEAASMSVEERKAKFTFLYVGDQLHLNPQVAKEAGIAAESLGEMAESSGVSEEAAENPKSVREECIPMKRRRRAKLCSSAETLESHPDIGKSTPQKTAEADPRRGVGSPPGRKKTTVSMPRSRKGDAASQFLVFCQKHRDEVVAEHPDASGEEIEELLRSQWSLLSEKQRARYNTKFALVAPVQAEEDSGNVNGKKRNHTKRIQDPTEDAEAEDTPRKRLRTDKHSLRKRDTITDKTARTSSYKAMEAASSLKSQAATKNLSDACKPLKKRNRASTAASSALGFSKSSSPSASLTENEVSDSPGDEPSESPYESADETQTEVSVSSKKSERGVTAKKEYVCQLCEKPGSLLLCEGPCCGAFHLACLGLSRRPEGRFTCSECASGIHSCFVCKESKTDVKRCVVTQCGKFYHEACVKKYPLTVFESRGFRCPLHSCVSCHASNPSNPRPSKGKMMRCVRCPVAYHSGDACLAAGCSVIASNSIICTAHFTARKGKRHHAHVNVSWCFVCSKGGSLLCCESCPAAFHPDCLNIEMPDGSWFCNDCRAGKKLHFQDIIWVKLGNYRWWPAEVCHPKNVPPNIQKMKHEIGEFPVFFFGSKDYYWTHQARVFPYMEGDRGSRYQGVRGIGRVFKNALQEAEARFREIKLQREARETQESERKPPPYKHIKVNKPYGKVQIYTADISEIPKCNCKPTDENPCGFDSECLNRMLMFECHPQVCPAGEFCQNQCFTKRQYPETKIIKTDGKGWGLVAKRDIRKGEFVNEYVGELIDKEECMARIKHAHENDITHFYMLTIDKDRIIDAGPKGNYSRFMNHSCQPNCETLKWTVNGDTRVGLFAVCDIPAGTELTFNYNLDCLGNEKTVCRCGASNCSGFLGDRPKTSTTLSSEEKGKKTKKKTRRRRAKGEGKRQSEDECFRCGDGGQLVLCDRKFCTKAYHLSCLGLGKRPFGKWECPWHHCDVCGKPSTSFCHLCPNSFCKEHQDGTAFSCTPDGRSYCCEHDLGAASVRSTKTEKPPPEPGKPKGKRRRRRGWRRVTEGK
- protocol.description: Inhibition of human NSD2 E1099K mutant using Nucleosomes and [3H]SAM as substrate incubated for 30 mins to 1 hr by HotSpot kinase assay
pIC50: −log10 of the molar value.

{"sample.smiles": "Cc1cc(C)c(CNC(=O)c2cc(Cl)c3c(c2C)O[C@@](C)([C@H]2CC[C@H](N(C)C)CC2)O3)c(=O)[nH]1", "pIC50": 4.00}

---

- target.system: Histone-lysine N-methyltransferase SETD7 (Homo sapiens)
- Sequence (Q8WTS6 whole entry): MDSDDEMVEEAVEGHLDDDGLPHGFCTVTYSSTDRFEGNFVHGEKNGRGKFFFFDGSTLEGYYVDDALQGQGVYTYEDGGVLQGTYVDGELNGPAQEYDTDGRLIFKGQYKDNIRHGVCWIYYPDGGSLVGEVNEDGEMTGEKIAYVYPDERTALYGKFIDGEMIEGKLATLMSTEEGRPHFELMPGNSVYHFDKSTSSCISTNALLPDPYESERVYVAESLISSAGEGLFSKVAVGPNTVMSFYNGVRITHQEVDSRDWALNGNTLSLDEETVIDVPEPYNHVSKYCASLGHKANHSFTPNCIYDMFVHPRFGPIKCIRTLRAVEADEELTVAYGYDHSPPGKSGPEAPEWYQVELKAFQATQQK

{"sample.smiles": "Cc1cc(C)c(CNC(=O)c2cc(Cl)c3c(c2C)O[C@@](C)([C@H]2CC[C@H](N(C)C)CC2)O3)c(=O)[nH]1", "target.system": "Histone-lysine N-methyltransferase SETD7 (Homo sapiens)", "unit.descriptor": "µM", "IC50": 100}

---

- protocol.description: Cmax in BALB/c mouse at 6.3 mg/kg administered as single dose
- Assay type: ADME, organism-based
- experimental.conditions: in vivo, route po

{"sample.smiles": "Cc1cc(C)c(CNC(=O)c2cc(Br)c3c(c2C)O[C@@](C)([C@H]2CC[C@H](N(C)C)CC2)O3)c(=O)[nH]1", "Cmax (nM)": 450}

---

- target.system: DNA (cytosine-5)-methyltransferase 3B (Homo sapiens, UniProt Q9UBC3)
pIC50: −log10 of the molar value.

{"molecule": "Cc1cc(C)c(CNC(=O)c2cc(Cl)c3c(c2C)O[C@@](C)([C@H]2CC[C@H](N(C)C)CC2)O3)c(=O)[nH]1 [VALEMETOSTAT]", "pIC50": 4.00}

---

- Test system: RS4-11
- protocol.description: Antiproliferative activity against human RS4-11 cells assessed as inhibition of cell growth
- Format: functional, cell-based
pEC50: −log10 of the molar value.

{"sample.smiles": "CCCc1cc(C)[nH]c(=O)c1CNC(=O)c1cc(-c2ccc(N3CCN(C(C)C)CC3)nc2)cc2c1cnn2C(C)C", "pEC50": 5.71}
